Hey, just so you know, these numbers are from ChEMBL document CHEMBL3351935.

System: Plasmodium falciparum
PROCEDURE TEXT: Antimalarial activity against chloroquine /mefloquine/pyrimethamine-resistant Plasmodium falciparum C235 by malaria SYBR green 1-based fluorescence (MSF) assay
Assay type: functional, organism-based
ASSAY ENDPOINT: pIC50
Give bare numbers, as −log10 of the molar value.

# count of solved cases: 10
{"COMPOUND": "O=c1c(O)c(-c2ccc(O)c(O)c2)oc2c(CNCCc3cccc(F)c3)c(O)cc(O)c12", "MEAS VALUE": 7.06}
{"COMPOUND": "O=c1c(O)c(-c2ccc(O)c(O)c2)oc2c(CNCCc3c(Cl)cccc3Cl)c(O)cc(O)c12", "MEAS VALUE": 6.82}
{"COMPOUND": "O[C@@H](c1cc(C(F)(F)F)nc2c(C(F)(F)F)cccc12)[C@H]1CCCCN1 [(S,R)-MEFLOQUINE]", "MEAS VALUE": 7.11}
{"COMPOUND": "O=c1c(O)c(-c2ccc(O)c(O)c2)oc2c(CNCc3ccc(Cl)cc3)c(O)cc(O)c12", "MEAS VALUE": 6.37}
{"COMPOUND": "O=c1c(O)c(-c2ccc(O)c(O)c2)oc2c(CNCc3cccc(Cl)c3)c(O)cc(O)c12", "MEAS VALUE": 6.66}
{"COMPOUND": "O=C(O[C@@H]1Cc2c(O)cc(O)cc2O[C@@H]1c1cc(O)c(O)c(O)c1)c1cc(O)c(O)c(O)c1 [EPIGALOCATECHIN GALLATE]", "MEAS VALUE": 6.21}
{"COMPOUND": "O=c1c(O)c(-c2ccc(O)c(O)c2)oc2c(CN3CCCCC3)c(O)c(CN3CCCCC3)c(O)c12", "MEAS VALUE": 5.51}
{"COMPOUND": "O=c1c(O)c(-c2ccc(O)c(O)c2)oc2c(CNCc3ccc(F)cc3)c(O)cc(O)c12", "MEAS VALUE": 6.15}
{"COMPOUND": "O=c1c(O)c(-c2ccc(O)c(O)c2)oc2c(CNCCc3cccc(Cl)c3)c(O)cc(O)c12", "MEAS VALUE": 7.10}
{"COMPOUND": "O=c1c(O)c(-c2ccc(O)c(O)c2)oc2c(CNCCc3ccc(Cl)cc3)c(O)cc(O)c12", "MEAS VALUE": 5.92}

Each of the following entries comes with a recorded value; kindly state pIC50 for each.
1. C[C@@H]1CC[C@H]2[C@@H](C)C(=O)O[C@@H]3O[C@@]4(C)CC[C@@H]1[C@]32OO4 [ARTEMISININ]
2. O=c1c(O)c(-c2ccc(O)c(O)c2)oc2c(CNCCc3ccccc3Cl)c(O)cc(O)c12
3. O=c1c(O)c(-c2ccc(O)c(O)c2)oc2c(CNCCc3ccc(F)cc3)c(O)cc(O)c12
4. O=c1c(O)c(-c2ccc(O)c(O)c2)oc2c(CNCCc3ccccc3F)c(O)cc(O)c12

Outgoing:
1: 7.89; 2: 6.59; 3: 6.82; 4: 6.74
